# protocol: background-corrected fluorescence of 3'-dye-labeled ssDNA relative to brightest sequence (3'-GCGCG) (fraction); higher = brighter dye fluorescence (less quenching)
# conditions: dye: Cy5 (3' terminal)
This section presents sequences with their documented background-corrected fluorescence values.
observable: background-corrected fluorescence

1) TTTTTTCAGCAGCATGATGCTTTTTTTTTTTTTTTGTTCA [ACTTG] ... 0.389
2) TTTTTTGCGCATGCTCATGATTTTTTTTTTTTTTTATAGC [CGATA] ... 0.407
3) TTTTTTCATGCTGAGCAGCATTTTTTTTTTTTTTTGACTT [TTCAG] ... 0.401
4) TTTTTTGCTGCGCAGCAGCATTTTTTTTTTTTTTTAATTT ... 0.39
5) TTTTTTGATGAGCATCATGATTTTTTTTTTTTTTTCCTGC [CGTCC] ... 0.394
6) TTTTTTGCTGATGCTCATGATTTTTTTTTTTTTTTACAGC [CGACA] ... 0.404

###

This section presents sequences with their documented background-corrected fluorescence values.
# protocol: background-corrected fluorescence of 3'-dye-labeled ssDNA relative to brightest sequence (3'-GCGCG) (fraction); higher = brighter dye fluorescence (less quenching)
# conditions: dye: Cy3 (3' terminal)
observable: background-corrected fluorescence

1. TTTTTTGCTCATCAGCATCATTTTTTTTTTTTTTTAGGTG [GTGGA] ... 0.585
2. TTTTTTGATCATCATGCGCATTTTTTTTTTTTTTTCGGAT [TAGGC] ... 0.593
3. TTTTTTGCTGCTCAGCATGCTTTTTTTTTTTTTTTAAGTA [ATGAA] ... 0.591
4. TTTTTTGCGCATGCTCATGCTTTTTTTTTTTTTTTATAGA [AGATA] ... 0.602
5. TTTTTGCATCAGCATCAGCATTTTTTTTTTTTTTTTGTGT ... 0.603
6. TTTTTTCATCATCATGCGCATTTTTTTTTTTTTTTGGGAT [TAGGG] ... 0.617
7. TTTTTTGAGCATGCTCATGCTTTTTTTTTTTTTTTCTAGA [AGATC] ... 0.608
8. TTTTTTCATGCTGAGCAGCATTTTTTTTTTTTTTTGACTT [TTCAG] ... 0.501

###

# protocol: background-corrected fluorescence of 3'-dye-labeled ssDNA relative to brightest sequence (3'-GCGCG) (fraction); higher = brighter dye fluorescence (less quenching)
# conditions: dye: Cy3 (3' terminal)
observable: background-corrected fluorescence

1. TTTTTTGCTCATCATCATGCTTTTTTTTTTTTTTTAGGGA ... 0.707
2. TTTTTTGATGATCATGATGATTTTTTTTTTTTTTTCCGCC ... 0.445
3. TTTTTGCAGCATCAGCATGCTTTTTTTTTTTTTTTTTGTA [ATGTT] ... 0.576
4. TTTTTTGAGCAGCATGCTCATTTTTTTTTTTTTTTCTTAG [GATTC] ... 0.528

###

# protocol: background-corrected fluorescence of 3'-dye-labeled ssDNA relative to brightest sequence (3'-GCGCG) (fraction); higher = brighter dye fluorescence (less quenching)
# conditions: dye: Cy3 (3' terminal)
I would appreciate it if you labelled entries Y when background-corrected fluorescence is 0.5 or higher, otherwise N.

1) TTTTTGCATGAGCATCATGCTTTTTTTTTTTTTTTTCTGA [AGTCT] ... Y
2) TTTTTTGAGCATCAGCAGCATTTTTTTTTTTTTTTCTGTT [TTGTC] ... Y
3) TTTTTTGCTCATGATGATGATTTTTTTTTTTTTTTAGCCC [CCCGA] ... N
4) TTTTTTGATGATGAGCATGCTTTTTTTTTTTTTTTCCCTA [ATCCC] ... N
5) TTTTTTGATCATCATCAGCATTTTTTTTTTTTTTTCGGGT [TGGGC] ... Y
6) TTTTTTGCTCAGCATGATGATTTTTTTTTTTTTTTAGTCC [CCTGA] ... N
7) TTTTTTCATGCGCATGCGCATTTTTTTTTTTTTTTGATAT [TATAG] ... Y
8) TTTTTTCATCATCATGCTCATTTTTTTTTTTTTTTGGGAG [GAGGG] ... Y
9) TTTTTGCAGCATCATCATCATTTTTTTTTTTTTTTTTGGG [GGGTT] ... Y
10) TTTTTTCATGATCATCATGCTTTTTTTTTTTTTTTGCGGA [AGGCG] ... Y
11) TTTTTTCAGCAGCATCATGCTTTTTTTTTTTTTTTGTTGA [AGTTG] ... Y
12) TTTTTTGAGCATGCGCATGATTTTTTTTTTTTTTTCTATC ... N
13) TTTTTGCATGCGCATGATGATTTTTTTTTTTTTTTTATCC [CCTAT] ... N
14) TTTTTTGATGATGATGCTGATTTTTTTTTTTTTTTCCCAC [CACCC] ... N
15) TTTTTGCATGCTCATGCTCATTTTTTTTTTTTTTTTAGAG [GAGAT] ... Y
16) TTTTTGCATGCGCATCAGCATTTTTTTTTTTTTTTTATGT [TGTAT] ... Y
17) TTTTTTGCTCAGCATGAGCATTTTTTTTTTTTTTTAGTCT [TCTGA] ... N
18) TTTTTTCATCATGAGCATGATTTTTTTTTTTTTTTGGCTC [CTCGG] ... N
19) TTTTTTCATCATGATGCTCATTTTTTTTTTTTTTTGGCAG [GACGG] ... Y
20) TTTTTTGCTGATGATGAGCATTTTTTTTTTTTTTTACCCT [TCCCA] ... N
21) TTTTTTCATGAGCAGCATCATTTTTTTTTTTTTTTGCTTG [GTTCG] ... N
22) TTTTTGCATGATGCTGCTGCTTTTTTTTTTTTTTTTCAAA [AAACT] ... Y
23) TTTTTGCATGATCATGCGCATTTTTTTTTTTTTTTTCGAT [TAGCT] ... Y
24) TTTTTTCATGCGCAGCAGCATTTTTTTTTTTTTTTGATTT [TTTAG] ... Y
25) TTTTTTGCTCAGCATGCTGCTTTTTTTTTTTTTTTAGTAA [AATGA] ... Y
26) TTTTTTGCTCATGATGCTGCTTTTTTTTTTTTTTTAGCAA [AACGA] ... Y
27) TTTTTTGCGCATCATGCTGCTTTTTTTTTTTTTTTATGAA [AAGTA] ... Y
